# reported inhibition; entries follow
Test: growth inhibitors of tim10-1 mutant yeast, confirmation, single concentration, luminescence, S. cerevisiae (AID 463213);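 note: tim10-1 mutant grown at permissive 25 °C to find synthetic lethal compounds; 0% = DMSO yeast wells and 100% = medium wells without yeast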
Conditions: S. cerevisiae tim10-1 ts strain growth, BacTiter-Glo, 24 h; at 20 µM; stronger effect = higher value
The campaign covered roughly 7,400 compounds. About 4,100 (55%) were called active. So high a share suggests a set chosen from earlier hits. Not all results are given here.
Property Measured: inhibition (%)

1. N/C(=N\OC(=O)c1cc(-c2ccccc2)nc2ccccc12)c1ccncc1 ... 70.7
2. COc1ccc(NCc2nnc(SCc3ccccc3)n2-c2ccc(OC)cc2)cc1 ... 38.9
3. CCOC(=O)c1ccc(NC(=O)c2nc[nH]c2C(=O)NCc2ccccc2)cc1 ... 41.4
4. CCOC(=O)c1ccc(N2C(=O)CC(N3CCC(C(=O)OCC)CC3)C2=O)cc1 (centres undefined) ... 47.8

----------
Measured inhibition, listed per entry.
Assay: growth inhibitors of tim10-1 mutant yeast, confirmation, single concentration, luminescence, S. cerevisiae (AID 463213);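 note: tim10-1 mutant grown at permissive 25 °C to find synthetic lethal compounds; 0% = DMSO yeast wells and 100% = medium wells without yeast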
Details: S. cerevisiae tim10-1 ts strain growth, BacTiter-Glo, 24 h; at 20 µM; stronger effect = higher value
The whole screen tested about 7,400 compounds, of which about 4,100 (55%) were called active. The set was probably picked from earlier hits. These entries were drawn from the full list.
Property Measured: inhibition (%)

1. Cc1cccc(NC(=S)Nc2ccc(Cl)c(Cl)c2)c1 ... 50.9
2. COc1ccc(CCNCc2c(-c3ccccc3)n(C)c3ccccc23)cc1 ... 19.6
3. Cc1ccoc1C(=O)Nc1cccc(Oc2ccccc2)c1 ... 43.2
4. NS(=O)(=O)c1ccc(NC(=S)Nc2ccc(Br)c(Cl)c2)cc1 ... 41.2
5. CCOC(=O)Cc1csc(NC(=O)CSc2ccc(Br)cc2)n1 ... 31.3
6. Cc1ccc(N2C(=O)C(Cc3ccccc3)NC2=S)cc1 (stereo not given) ... 16.7
7. Cc1ccccc1NCC(=O)N/N=C\c1ccc([N+](=O)[O-])s1 ... 44.2
8. COc1ccc(C(C[N+](=O)[O-])n2nc(C)cc2C)cc1 (stereo not given) ... 38.1
9. COc1ccc(/C=N/Nc2ncnc3sc4c(c23)CCCC4)cc1O ... 17.2
10. COc1ccc(C)cc1Nc1nc(C)nc2c1oc1ccccc12 ... 25.5

----------
Assay: growth inhibitors of tim10-1 mutant yeast, confirmation, single concentration, luminescence, S. cerevisiae (AID 463213);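 note: tim10-1 mutant grown at permissive 25 °C to find synthetic lethal compounds; 0% = DMSO yeast wells and 100% = medium wells without yeast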
Conditions: S. cerevisiae tim10-1 ts strain growth, BacTiter-Glo, 24 h; at 20 µM
The campaign covered roughly 7,400 compounds. About 4,100 (55%) were called active.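 The calls were made as follows: active = inhibition of yeast growth at or above a set limit in either of two repeat tests at 20 µM; inactive = the rest.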 The set was probably picked from earlier hits. These entries were drawn from the full list.
Possible outcomes: active, inactive

1. CC1=CC(C)(C)Nc2ccc(OC(=O)CN3C(=O)C4CCCCC4C3=O)cc21 (stereo not drawn) ... inactive
2. Cc1cccc(NC(=S)N2CCC(c3nc4ccccc4s3)CC2)c1 ... inactive
3. O=C1NC(Nc2nc3ccccc3s2)(C(F)(F)F)C(=O)N1C1CCCCC1 (stereo not drawn) ... active
4. Cc1nc2sc(C(=O)c3ccccc3)c(N)c2c2c1CCCC2 ... active
5. CCC(=O)Nc1nc2ccccc2n1Cc1ccccc1C ... inactive
6. Cc1cccc(/C(N)=N/OC(=O)c2ccccc2Cl)c1 ... active
7. O=C(/C=C/c1ccc(Cl)c([N+](=O)[O-])c1)c1ccc(O)cc1 ... active
8. O=C(/C(=C/c1cccc(Cl)c1)c1nc2ccccc2[nH]1)c1ccccc1 ... active
9. CCc1ccc(-c2cc3c(=O)n(CC(=O)NCCCN4CCN(Cc5ccccc5)CC4)nc(C)n3n2)cc1 ... inactive
10. O=C1c2cccc3c([N+](=O)[O-])ccc(c23)C(=O)N1CC1CCCO1 (stereo not drawn) ... active
11. O=C(/C=C/c1ccc(Cl)c([N+](=O)[O-])c1)c1cccnc1 ... active
12. O=[N+]([O-])c1ccc(N2CCN(c3ccc(O)cc3)CC2)c(Cl)c1 ... inactive
13. O=c1oc(-c2ccco2)nc2sc3c(c12)CCCCC3 ... inactive
14. CCOC(=O)c1c(-c2ccccc2)oc2cc(Br)c(O)cc12 ... active
15. Cc1ccc(C(=O)/C=C/c2c(C)nn(-c3ccccc3)c2Cl)cc1 ... active
16. FC(F)(F)c1cccc(NC(=S)Nc2cccc(Cl)c2)c1 ... inactive
17. COc1ccc(S(=O)(=O)Nc2ccc(O)c(Sc3nc4ccccc4s3)c2)cc1 ... active
18. CCOC(=O)c1c(-c2ccccc2)oc2ccc(OCC(=O)NN)cc12 ... inactive

----------
Assay: growth inhibitors of tim10-1 mutant yeast, confirmation, single concentration, luminescence, S. cerevisiae (AID 463213);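 note: tim10-1 mutant grown at permissive 25 °C to find synthetic lethal compounds; 0% = DMSO yeast wells and 100% = medium wells without yeast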
Conditions: S. cerevisiae tim10-1 ts strain growth, BacTiter-Glo, 24 h; at 20 µM; stronger effect = higher value
Hit rate of the full screen: of about 7,400 compounds, about 4,100 (55%) were called active. So high a share suggests a set chosen from earlier hits. A selection follows.
# inhibition >= 30% gives t, anything below gives f

1. CN=c1scc(-c2cc(OC)ccc2OC)n1/N=C/c1c(C)[nH]c2ccccc12 ... f
2. CC(C)Cn1c(N)c(C(=O)NCc2cccs2)c2nc3ccccc3nc21 ... f
3. Cc1ccc(NC(=O)CN2CCC3(O)CCCCC3C2c2ccc3c(c2)OCO3)c(C)c1 (stereo unspecified) ... t
4. O=c1nc2s/c(=C\c3ccco3)c(=O)n2nc1Cc1ccccc1 ... t
5. Clc1ccc(C2CC(c3cccs3)n3ncnc3N2)cc1Cl (stereo unspecified) ... f
6. O=C(NCCN1C(=O)S/C(=C\c2cccnc2)C1=O)c1cccc(OC(F)F)c1 ... f
7. Fc1ccc(N2CCN(Cc3cnc(Oc4ccc(Br)cc4)s3)CC2)cc1 ... f
8. Cn1c(-c2sccc2OCc2cccc(C(F)(F)F)c2)n[nH]c1=S ... f
9. O=c1c(-c2ccc3c(c2)OCCO3)c(C(F)(F)F)oc2cc(O)cc(O)c12 ... f
10. Cc1oc2cc(Br)c(O)c(Br)c2c1C(=O)c1ccccc1 ... t
11. CC(C)c1nccn1S(=O)(=O)c1cc([N+](=O)[O-])ccc1Cl ... f
12. CCCc1nc2c(c(=O)c3ccccc3n2C)c(=O)n1C1CCCCCC1 ... f
13. CSc1nnc(NC(=O)c2nc(S(=O)(=O)Cc3ccc(C)cc3)ncc2Cl)s1 ... f
14. COc1ccccc1C1SCCN1C(=O)c1ccc([N+](=O)[O-])cc1 (stereo unspecified) ... f
15. CCn1c(COc2c(C)cccc2C)nnc1SCc1nc2ccccc2c(=O)[nH]1 ... f
16. CCCCCC1CCC(c2nnc(SCC(C)=O)o2)CC1 (stereo unspecified) ... t
17. CCc1ccc(-c2cc(C(=O)NCc3ccco3)c3ccccc3n2)s1 ... t
18. CCc1nc(C)cn1S(=O)(=O)c1cc([N+](=O)[O-])ccc1Cl ... t
19. O=C(c1cccc(C(=O)N2CCN(c3ccc(F)cc3)CC2)c1)N1CCN(c2ccc(F)cc2)CC1 ... f
20. OC(CNCC1CCCO1)Cn1c2ccc(Br)cc2c2cc(Br)ccc21 (stereo unspecified) ... f
21. Cc1nc(-c2ccccc2)cn2c1nc1ccccc12 ... t
22. N/C(=N\OC(=O)CCC1CCCCC1)c1ccccn1 ... t
23. O=C1c2ccccc2C(=O)c2c1cccc2N1CCN(Cc2ccccc2)CC1 ... t
24. S=C(NCc1ccc(Cl)cc1)NC12CC3CC(CC(C3)C1)C2 ... f
25. O=C(/C=C/c1ccccc1)c1ccccc1O ... t
26. O=C(COc1ccccc1Cl)N1N=C(c2cccs2)CC1c1ccco1 (stereo unspecified) ... f
27. Cc1ccc(-c2cn3cc(C)ccc3n2)cc1 ... t
28. COc1ccccc1NC(=O)C1=C(C)Nc2nnnn2C1c1cccc(Br)c1 (stereo unspecified) ... f
29. COc1ccc(C(=O)Nc2ccccc2C(=O)N/N=C/c2ccccc2OC)cc1 ... t
30. O=C1CC(c2ccccc2)=NN1c1ccc([N+](=O)[O-])cc1 ... f
31. Clc1ccc(Nc2ccc3ccccc3n2)cc1 ... t
32. CCCCC(O)(CCCC)C(=O)NN(C(=O)CCl)c1ccccc1 ... t
33. CCN1/C(=C\c2ccc3ccccc3[n+]2CC)Sc2cc(C)ccc21 ... t
34. O=C(c1ccc(CSc2ccccc2)cc1)N1CCCCCC1 ... f
35. COc1ccccc1C1C(C#N)=C(N)Oc2c1c(-c1ccccc1)nn2-c1ccccc1 (stereo unspecified) ... f
36. O=C1C=CC(=O)N1c1ccc(N2CCCCC2)cc1 ... t
37. O=C(CC(O)(C(F)(F)F)C(F)(F)F)Nc1ccc(Cl)c(Cl)c1 ... t
38. COc1ccc2nc(Nc3nc4cc5c(cc4s3)OCCO5)sc2c1 ... f
